Where a name gives a salt, the structure may show the parent alone.
test-readout: melting point

Example cases with answers are listed next.
compound=Cl.NCC1(Cc2noc(=S)[nH]2)CCCCC1 value_reported="210 to 212 °C"
compound="CC(C)CC(CN)Cc1noc(=S)[nH]1.Cl (stereo not shown)" value_reported="183 to 185 °C"
compound=CS(=O)(=O)NCCC1(CN)CCCCC1.Cl value_reported="196 to 199 °C"

IN: Supply reported melting point belonging to this compound: CCCC(C(C)C)C(CN)CC(=O)O (stereo not shown) (as salt: HCl)
OUT: 160 to 170 °C
